Tested on: M. suipneumoniae Str. 11
Assay: MIC against mycoplasma in vitro
Format: cell-based
Details: Mesomycoplasma hyopneumoniae, 144 h; M. suipneumoniae Str. 11; 6 days, 37° C.; read-out: MIC
MEASUREMENT NAME: MIC (µg/mL)
Numeric answer only, unit µg/mL assumed.

{"columns": ["RECORD SMILES", "TEST TARGET", "MEASURED VALUE"],
 "data": [
  ["C/C(=C\\c1ncc(-c2ccc(S(=O)(=O)N(C)C)cc2)o1)C[C@@H]1OC[C@H](C[C@@H]2O[C@H]2[C@@H](C)[C@H](C)O)[C@@H](O)[C@H]1O", "M. suipneumoniae Str. 11", 0.1],
  ["COC(=O)CCCCCCCc1cnc(/C=C(\\C)C[C@@H]2OC[C@H](C[C@@H]3O[C@H]3[C@@H](C)[C@H](C)O)[C@@H](O)[C@H]2O)o1", "M. suipneumoniae Str. 11", 10]
]}

Please turn your attention to the following entry.
Entry `C/C(=C\c1ncc(-c2ccc([N+](=O)[O-])cc2)o1)C[C@@H]1OC[C@H](C[C@@H]2O[C@H]2[C@@H](C)[C@H](C)O)[C@@H](O)[C@H]1O` , tested on M. suipneumoniae Str. 11, has a reported MIC of 0.1

###

Items are presented alongside their recorded MIC.
System: E. coli NCTC 10418
Assay: MIC against human bacteria in vitro
Format: cell-based
Settings: Escherichia coli, NCTC10418; E. coli NCTC 10418; agar with 5% chocolated horse blood, 18 hours, 37° C.; read-out: MIC

{"columns": ["COMPOUND", "TEST TARGET", "MIC"],
 "data": [
  ["C/C(=C\\c1ncc(-c2cccc([S+](C)[O-])c2)o1)C[C@@H]1OC[C@H](C[C@@H]2O[C@H]2[C@@H](C)[C@H](C)O)[C@@H](O)[C@H]1O (stereo partly drawn)", "E. coli NCTC 10418", "> 128 µg/mL"]
]}

Input `C/C(=C\c1ncc(-c2cccc(C#N)c2)o1)C[C@@H]1OC[C@H](C[C@@H]2O[C@H]2[C@@H](C)[C@H](C)O)[C@@H](O)[C@H]1O` . Output MIC: > 50 µg/mL

Lab book: MIC of `CSc1cccc(-c2cnc(/C=C(\C)C[C@@H]3OC[C@H](C[C@@H]4O[C@H]4[C@@H](C)[C@H](C)O)[C@@H](O)[C@H]3O)o2)c1` noted as > 128 µg/mL

###

The entries below are paired with their reported log10(MIC).
Test system: Past. multocida PA2
Assay: MIC against veterinary bacteria in vitro
Conditions: Pasteurella multocida, PA2, 18 h
In plain terms, each number is the log10 of measured MIC in µg/mL.

As a guide, the following entries are already answered.
{"columns": ["RECORD SMILES", "log10(MIC)"],
 "data": [
  ["C/C(=C\\c1ncc(-c2cccc(C#N)c2)o1)C[C@@H]1OC[C@H](C[C@@H]2O[C@H]2[C@@H](C)[C@H](C)O)[C@@H](O)[C@H]1O", 0.40],
  ["CSc1ccc(-c2cnc(/C=C(\\C)C[C@@H]3OC[C@H](C[C@@H]4O[C@H]4[C@@H](C)[C@H](C)O)[C@@H](O)[C@H]3O)o2)cc1", 0.70],
  ["C/C(=C\\c1ncc(-c2ccccc2)o1)C[C@@H]1OC[C@H](C[C@@H]2O[C@H]2[C@@H](C)[C@H](C)O)[C@@H](O)[C@H]1O", 0.10],
  ["C/C(=C\\c1nc(-c2ccccc2)c(-c2ccccc2)o1)C[C@@H]1OC[C@H](C[C@@H]2O[C@H]2[C@@H](C)[C@H](C)O)[C@@H](O)[C@H]1O", 1.30],
  ["C/C(=C\\c1cc(C)on1)C[C@@H]1OC[C@H](C[C@@H]2O[C@H]2[C@@H](C)[C@H](C)O)[C@@H](O)[C@H]1O", -0.20],
  ["CSc1cccc(-c2cnc(/C=C(\\C)C[C@@H]3OC[C@H](C[C@@H]4O[C@H]4[C@@H](C)[C@H](C)O)[C@@H](O)[C@H]3O)o2)c1", 1.00],
  ["C/C(=C\\c1ncc(-c2ccc([N+](=O)[O-])cc2)o1)C[C@@H]1OC[C@H](C[C@@H]2O[C@H]2[C@@H](C)[C@H](C)O)[C@@H](O)[C@H]1O", -0.20],
  ["COC(=O)CCCCCCCc1cnc(/C=C(\\C)C[C@@H]2OC[C@H](C[C@@H]3O[C@H]3[C@@H](C)[C@H](C)O)[C@@H](O)[C@H]2O)o1", 1.30]
]}

# context switch: different compound, same log10(MIC)
Entry `C/C(=C\c1ncc(-c2ccccc2)s1)C[C@@H]1OC[C@H](C[C@@H]2O[C@H]2[C@@H](C)[C@H](C)O)[C@@H](O)[C@H]1O` — recorded log10(MIC) = 1.90
